Assayed system: Prothrombin (Mus musculus, UniProt P19221)
Assay remarks: Inhibition of mouse thrombin after 15 mins using H-D-Ile-Pro-Arg-p-nitroanilide as substrate
Where a SMILES comes first, the peptide text is derived from it. Bridges are numbered along the chain shown (N, C = ends). [ ]: non-standard residue; d: D form. Ala(1-amidino-4-piperidyl) = N=C(N)N1CCC(C[C@H](N)C(=O)O)CC1
Readout type: Ki

Solved entries (count: 2):
{"Compound": "CC(C)C[C@@H]1NC(=O)[C@H](Cc2ccc(O)cc2)NC(=O)[C@H](CCCNC(=N)N)NC(=O)[C@H](CO)NC(=O)[C@H](Cc2ccc(O)cc2)NC(=O)[C@H](C)NC(=O)[C@@H]2CCCN2C(=O)[C@@H](N)CSSC[C@@H](C(=O)O)NC(=O)[C@H](CC(=O)O)NC1=O (H-CPAYSRYLDC-OH; disulfide 1-10)", "Ki": "> 1000 µM"}
{"Compound": "CC(C)C[C@@H]1NC(=O)[C@H](Cc2ccc(O)cc2)NC(=O)[C@H](CC2CCN(C(=N)N)CC2)NC(=O)[C@H](CO)NC(=O)[C@H](Cc2ccc(O)cc2)NC(=O)[C@H](C)NC(=O)[C@@H]2CCCN2C(=O)[C@@H](N)CSSC[C@@H](C(=O)O)NC(=O)[C@H](CC(=O)O)NC1=O (H-CPAYS[Ala(1-amidino-4-piperidyl)]YLDC-OH; disulfide 1-10)", "Ki": "> 1000 µM"}

Now for another entry.
# Ki lookup, item CC(C)C[C@@H]1NC(=O)[C@H](C)NC(=O)[C@H](CC2CCN(C(=N)N)CC2)NC(=O)[C@H](Cc2ccccc2)NC(=O)[C@H](CCCNC(=N)N)NC(=O)[C@H](CCCCN)NC(=O)[C@@H]2CCCN2C(=O)[C@@H](N)CSSC[C@@H](C(=O)O)NC(=O)[C@H](Cc2ccccc2)NC1=O (H-CPKRF[Ala(1-amidino-4-piperidyl)]ALFC-OH; disulfide 1-10)
> 1000 µM
